measurement-target: fusion glycoprotein of the RSV used in the neutralization assay of Example 1 (respiratory syncytial virus (strain not stated))
procedure-text: cell-based or functional assay
observation-type: RSV Neutralization - IC50
A complete answer gives the number followed by the unit.

MPK162 (antibody, V domains shown) VH: EVQLVESGGGLVKPGDSLRLSCAASGFSLSSYYMFWIRQAPGKGLEWVSDISGGSTFTNYADSVKGRFTISRDNAKKVLYLQMNSLRVDDSAVYYCVRGSSISPNWFESWGQGALVTVSS VL: QSVLTQPPSVSGAPGQRVTISCTGTSSNIGAGYDVHWYQQVPGTAPKLLIYGNSNRPSGVPDRFSGSKSGTAASLAINGLQTEDEAEYYCQSYDRSLTGSYVFGSGTRVFVR ... 0.0252 µg/mL

Now look at this entry.
Q: Fill in RSV Neutralization - IC50 for record MPK150-v2 (antibody, V domains shown) VH: EVQLVESGGGLVKPGGSLRLSCEASGISLSGYYMIWIRQAPGKGLEWISSISGSSTYIDYADSVRGRFTISRHNGQNTIYLQMNSLRVEDTAVYFCATEQTPSPGPFELWGRGILVTVSS VL: QSVLTQPPSVSGAPGQRVTIFCTGTSSNIGTGYDVHWYQQFPGTSPKLLIFRNSNRPSGVPDRFSGSKSGSSASLAIAGLQAEDEADYYCQSYDRGVNGWVFGGGTKLTVL
Result: 0.0147 µg/mL
